- TGT: recombinant N-terminal MLH1 (residues 15-340) (Homo sapiens)
- Construct: recombinant N-terminal MLH1 (residues 15-340)
- Sequence (P40692 15-340): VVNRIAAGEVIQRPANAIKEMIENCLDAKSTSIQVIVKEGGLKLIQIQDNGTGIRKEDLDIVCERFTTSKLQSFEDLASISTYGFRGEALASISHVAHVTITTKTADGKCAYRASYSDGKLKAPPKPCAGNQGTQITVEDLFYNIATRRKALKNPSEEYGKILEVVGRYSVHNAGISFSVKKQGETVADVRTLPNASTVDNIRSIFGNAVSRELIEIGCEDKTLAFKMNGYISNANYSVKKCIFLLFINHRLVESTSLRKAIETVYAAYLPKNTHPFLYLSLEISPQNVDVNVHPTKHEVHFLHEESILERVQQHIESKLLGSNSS
- METHOD_DESCRIPTION: Fluorescence Polarisation Assay for MLH1
- CONDITIONS: 100 nM N-terminal MLH1, 5 nM probe compound
- Description: Fluorescence Polarisation Assay for MLH1 Test compounds, as 10 mM DMSO stocks, were dispensed into a 384-well Low Flange Black Flat Bottom Polystyrene Non-binding Surface plate (Corning®, item number 3575) using a Labcyte Echo acoustic liquid handler. […] Compound plates were centrifuged for 1 minute at 250 xg for 1 minute and immediately read on a PheraStar FSX (fitted with 384-well aperture spoon and 590 675 675 FP optic module). […]
pIC50: −log10 of the molar value.
# key: entry, value: pIC50

These solved cases illustrate the format of a correct answer.
> print(dat)
                    structure.smiles.string                                       tgt      measured
1  O=C(c1c(O)cc(C(F)F)cc1OCc1ccccc1)N1CCc2ccncc21  recombinant N-terminal MLH1 (residues 15-340) (Homo sapiens)  5.00 to 6.00
2  CN(C)CCOc1ccc2c(c1)CN(C(=O)c1c(O)cc(C(F)F)cc1OCc1ccccc1)C2  recombinant N-terminal MLH1 (residues 15-340) (Homo sapiens)  6.00 to 7.00
3  Nc1cc2c(cn1)CN(C(=O)c1c(O)cc(C(F)F)cc1OCc1ccccc1)C2  recombinant N-terminal MLH1 (residues 15-340) (Homo sapiens)  6.00 to 7.00
4  O=C(c1c(O)cc(C(F)F)cc1OCc1ccccc1)N1CCc2ccc(Cn3ccnc3)cc2C1  recombinant N-terminal MLH1 (residues 15-340) (Homo sapiens)  6.00 to 7.00
5  CN1CC[C@@H](Oc2ccc3c(c2)CN(C(=O)c2c(O)cc(C#N)cc2OCc2ccccc2)C3)C1  recombinant N-terminal MLH1 (residues 15-340) (Homo sapiens)  6.00 to 7.00
6  COCCOc1ccc2c(c1)CN(C(=O)c1c(O)cc(C#N)cc1OCc1ccccc1)C2  recombinant N-terminal MLH1 (residues 15-340) (Homo sapiens)  6.00 to 7.00

Report measured pIC50; entry is O=C(c1c(O)cc(F)cc1OCc1ccccc1)N1Cc2cccc(N[C@@H]3CCOC3)c2C1
5.00 to 6.00

Return pIC50 for the following compound: COc1cc2c(c(N[C@H]3CCOC3)c1)CN(C(=O)c1c(O)cc(C(F)F)cc1OCc1ccccc1)C2
6.00 to 7.00
